Answer each item with its documented TGI.
System: TK-10 renal
measurement.protocol: NCI tumour cell line growth inhibition, 48 h

Use the examples below as a reference point.
- molecule: "COc1ccc(O)cc1"
  value.measured: "> 100 µM"
- molecule: "Cc1cn(C2CC(n3cc(Cn4cc(Br)c(=O)[nH]c4=O)nn3)C(CO)O2)c(=O)[nH]c1=O (stereo unspecified)"
  value.measured: "> 100 µM"
- molecule: "COC(=O)N/N=C(\\C)C(CN1CCCCC1)C(C1=C(O)c2ccccc2OC1)c1ccccc1 (stereo unspecified)"
  value.measured: "> 100 µM"
- molecule: "Cn1cc(C2=C(c3cn(CCCCCN)c4ccccc34)C(=O)NC2=O)c2ccccc21"
  value.measured: "> 25 µM"

For every item below, please supply its TGI.
1. COC(=O)C1=CC(=O)OC1(OO)c1ccccc1 (stereo unspecified)
2. CCC1(C(=O)OC(C)(C)C)OC12C(C)CCCC2C (stereo unspecified)

result:
["> 100 µM", "> 100 µM"]
